Source of measurements: ChEMBL document CHEMBL1649272

experiment: Mean residence time in patient with severe burns at 1 g, iv; type: ADME, organism-based; settings: human, in vivo
property-measured: MRT (min)
Report the value in min with no unit label.

q: Can you share its MRT? I mean this compound: CC(=O)OCC1=C(C(=O)O)N2C(=O)[C@@H](NC(=O)Cc3cccs3)[C@H]2SC1 [CEPHALOTHIN]
a: 35.4

* * *

assay: Mean residence time in healthy human at 1 g, iv; format: ADME, organism-based; conditions: in vivo
property-measured: MRT (min)
Report the value in min with no unit label.

q: Can you share its MRT? I mean this compound: CC(=O)OCC1=C(C(=O)O)N2C(=O)[C@@H](NC(=O)Cc3cccs3)[C@H]2SC1 [CEPHALOTHIN]
a: 22.8

* * *

assay: Half life in patient with severe burns at 1 g, iv; type: ADME, organism-based; conditions: human, in vivo
property-measured: half-life (min)
Report the value in min with no unit label.

q: Can you share its half-life? I mean this molecule: CC(=O)OCC1=C(C(=O)O)N2C(=O)[C@@H](NC(=O)Cc3cccs3)[C@H]2SC1
a: 24.6

* * *

assay: Renal clearance in healthy human at 1 g, iv; assay type: ADME, organism-based, Kidney; conditions: in vivo, read-out: CL_renal
property-measured: CL renal (mL/min)
Report the value in mL/min with no unit label.

q: Can you share its CL renal? I mean this molecule: CC(=O)OCC1=C(C(=O)O)N2C(=O)[C@@H](NC(=O)Cc3cccs3)[C@H]2SC1 [CEPHALOTHIN]
a: 98

* * *

assay: Plasma protein binding in healthy human at 1 g, iv; format: ADME, cell-free; conditions: read-out: PPB (converted)
property-measured: fraction unbound
// keep it numeric: no unit symbol after the value

q: Can you share its fraction unbound? I mean this compound: CC(=O)OCC1=C(C(=O)O)N2C(=O)[C@@H](NC(=O)Cc3cccs3)[C@H]2SC1 [CEPHALOTHIN]
a: 0.29

* * *

assay: Volume of distribution at steady state in patient with severe burns at 1 g, iv; type: ADME, organism-based; conditions: human, in vivo, read-out: Vdss
property-measured: Vd (L/kg)
Report the value in L/kg with no unit label.

q: Can you share its Vd? I mean this molecule: CC(=O)OCC1=C(C(=O)O)N2C(=O)[C@@H](NC(=O)Cc3cccs3)[C@H]2SC1 [CEPHALOTHIN]
a: 0.63

* * *

experiment: Plasma protein binding in patient with severe burns at 1 g, iv; format: ADME, cell-free; conditions: human, read-out: PPB (converted)
property-measured: fraction unbound
// keep it numeric: no unit symbol after the value

q: Can you share its fraction unbound? I mean this compound: CC(=O)OCC1=C(C(=O)O)N2C(=O)[C@@H](NC(=O)Cc3cccs3)[C@H]2SC1
a: 0.41

* * *

test: Volume of distribution at steady state in healthy human at 1 g, iv; type: ADME, organism-based; settings: in vivo, read-out: Vdss
property-measured: Vd (L/kg)
Report the value in L/kg with no unit label.

q: Can you share its Vd? I mean this molecule: CC(=O)OCC1=C(C(=O)O)N2C(=O)[C@@H](NC(=O)Cc3cccs3)[C@H]2SC1
a: 0.6

* * *

test: Terminal half life in patient with severe burns at 1 g, iv; format: ADME, organism-based; details: human, in vivo, read-out: beta t1/2 (converted)
property-measured: half-life (min)
Report the value in min with no unit label.

q: Can you share its half-life? I mean this molecule: CC(=O)OCC1=C(C(=O)O)N2C(=O)[C@@H](NC(=O)Cc3cccs3)[C@H]2SC1
a: 54.6

* * *

test: Half life in healthy human at 1 g, iv; type: ADME, organism-based; details: in vivo
property-measured: half-life (min)
Report the value in min with no unit label.

q: Can you share its half-life? I mean this molecule: CC(=O)OCC1=C(C(=O)O)N2C(=O)[C@@H](NC(=O)Cc3cccs3)[C@H]2SC1
a: 15.6

* * *

tested on: Homo sapiens; experiment: AUC (0 to infinity) in patient with severe burns at 1 g, iv; format: ADME, organism-based, Plasma; set-up: dose 1 g, time infinity, route intravenous; conditions: in vivo
property-measured: AUC (ng·h/mL)
Report the value in ng·h/mL with no unit label.

q: Can you share its AUC? I mean this compound: CC(=O)OCC1=C(C(=O)O)N2C(=O)[C@@H](NC(=O)Cc3cccs3)[C@H]2SC1 [CEPHALOTHIN]
a: 12000
